These data points were gathered from the antibiotic and cytotoxicity screens of Wong et al. (2023).

System: HSkMC (human skeletal muscle cells)
Experiment: cytotoxicity call (relative viability < 0.9)
Details: 10 µM
Screen size: about 39,000 compounds; about 1,500 (3.8%) were called active. The full list was thinned out, with actives kept by preference.
Answer with one of the outcomes T = active, F = inactive

C[C@H]1CN([C@@H](C)CO)C(=O)Cc2cc(NC(=O)Cc3ccccc3)ccc2O[C@H]1CN(C)C(=O)Nc1cccc2ccccc12	F
Cn1nnc2c1CCN(C(=O)CS(C)(=O)=O)[C@@H]2COCC1CC1	F
Cn1cnc(S(=O)(=O)N2C[C@@H](O)COC[C@@H]3O[C@H](CC(=O)NCc4cccc(F)c4)CC[C@H]32)c1	F
Cc1cccc(NC(=O)Nc2ccc3c(c2)C(=O)N(C)[C@@H]2CC[C@H](CC(=O)NCc4ccccc4Cl)O[C@@H]2CO3)c1	F
CC(C)NC(=O)Nc1ccc2c(c1)C(=O)N([C@@H](C)CO)C[C@@H](C)[C@H](CN(C)CC1CCCCC1)OCCCC[C@@H](C)O2	F

Identify the outcome logged in this assay for the molecule shown: C[C@@H]1CN([C@@H](C)CO)C(=O)c2cc(NC(=O)Nc3cccc4ccccc34)ccc2O[C@@H]1CN(C)Cc1ccc(-c2ccccc2)cc1
T

Identify the outcome logged in this assay for the molecule shown: C[C@@H]1CN([C@H](C)CO)C(=O)c2cc(NC(=O)Nc3cccc4ccccc34)ccc2O[C@H]1CN(C)Cc1ccc(-c2ccccc2)cc1
F

Identify the outcome logged in this assay for the molecule shown: C[C@H]1CN([C@@H](C)CO)C(=O)c2cc(NC(=O)Nc3cccc4ccccc34)ccc2O[C@H]1CN(C)Cc1ccc(-c2ccccc2)cc1
F

Identify the outcome logged in this assay for the molecule shown: C[C@@H]1CN([C@H](C)CO)C(=O)c2cc(NC(=O)Nc3cccc4ccccc34)ccc2O[C@@H]1CN(C)Cc1ccc(-c2ccccc2)cc1
F
